tested on: Pseudomonas aeruginosa; experiment: Antibacterial activity against Pseudomonas aeruginosa ATCC 27853 assessed as effect on planktonic growth at 10.9 ug/ml after 20 hrs relative to control; type: functional
Reported values of Activity for individual entries

| MOLECULE | UNIT OF MEASURE | Activity |
| --- | --- | --- |
| COc1ccc(C)cc1C1=C(Br)C(=O)N(CC(C)C)/C1=C\c1cccc(Cl)c1 | % | 13.5 |
| COc1ccc(C)cc1C1=C(Br)C(=O)N(CC(C)C)C1(O)Cc1ccccc1Cl (configuration not stated) | % | -17.5 |
| COc1ccccc1C1=C(Br)C(=O)N(CC(C)C)/C1=C/c1ccc(C(F)(F)F)cc1 | % | -4.1 |
| COc1ccc(C)cc1C1=C(Br)C(=O)O/C1=C\c1cccc(Cl)c1 | % | -14 |
| COc1ccc(Br)cc1C1=C(Br)C(=O)N(CC(C)C)/C1=C/c1ccc(Br)cc1 | % | -15.5 |
| COc1cccc(/C=C2\OC(=O)C(Br)=C2c2cc(Cl)ccc2OC)c1 | % | -14.8 |
| COc1ccc(Cl)cc1C1=C(Br)C(=O)N(CC(C)C)/C1=C/c1ccccc1Br | % | -18.1 |

----------
system: Staphylococcus epidermidis; assay: Antibacterial activity against Staphylococcus epidermidis ATCC 35547 assessed as effect on planktonic growth at 2.73 ug/ml after 20 hrs relative to control; type: functional

| COMPOUND | Activity (%) |
| --- | --- |
| COc1ccc(Cl)cc1C1=C(Br)C(=O)N(CC(C)C)/C1=C\c1ccccc1Br | -6 |
| COc1ccc(Br)cc1C1=C(Br)C(=O)N(CC(C)C)/C1=C/c1cccc(Cl)c1 | 11.4 |
| COc1ccc(Cl)cc1C1=C(Br)C(=O)O/C1=C\c1ccccc1Br | 2.9 |
| COc1ccc(C)cc1C1=C(Br)C(=O)O/C1=C\c1ccccc1Cl | -0.7 |
| COc1ccccc1C1=C(Br)C(=O)N(CC(C)C)/C1=C/c1ccc(C(F)(F)F)cc1 | -6.4 |
| COc1ccc(C)cc1C1=C(Br)C(=O)N(CC(C)C)C1(O)Cc1cccc(Cl)c1 (stereo unspecified) | 1.9 |

----------
test system: Pseudomonas aeruginosa; test: Antibacterial activity against Pseudomonas aeruginosa ATCC 27853 assessed as effect on planktonic growth at 1.37 ug/ml after 20 hrs relative to control; type: functional

| COMPOUND | Activity (%) |
| --- | --- |
| COc1ccc(Br)cc1C1=C(Br)C(=O)N(CC(C)C)/C1=C\c1ccc(Br)cc1 | 1 |
| COc1ccccc1C1=C(Br)C(=O)O/C1=C\c1ccc(C(F)(F)F)cc1 | -5.7 |
| COc1ccc(C)cc1C1=C(Br)C(=O)N(CC(C)C)C1(O)Cc1cccc(Cl)c1 (configuration not stated) | -3.4 |
| COc1ccc(Br)cc1C1=C(Br)C(=O)N(CC(C)C)/C1=C\c1cccc(Cl)c1 | 3 |
| COc1cccc(CC2(O)C(c3cc(Cl)ccc3OC)=C(Br)C(=O)N2CC(C)C)c1 (configuration not stated) | -4.2 |
| COc1cccc(/C=C2/C(c3cc(Cl)ccc3OC)=C(Br)C(=O)N2CC(C)C)c1 | 0.8 |
| COc1ccc(C)cc1C1=C(Br)C(=O)O/C1=C\c1cccc(Cl)c1 | 0.8 |
| COc1ccc(Cl)cc1C1=C(Br)C(=O)N(CC(C)C)C1(O)Cc1ccccc1Br (configuration not stated) | -5.6 |
| COc1ccccc1C1=C(Br)C(=O)N(CC(C)C)/C1=C/c1ccc(C(F)(F)F)cc1 | -10.4 |
| COc1ccc(Cl)cc1C1=C(Br)C(=O)O/C1=C\c1ccccc1Br | -7 |
| COc1ccc(Br)cc1C1=C(Br)C(=O)O/C1=C\c1ccc(Br)cc1 | -8.6 |
| COc1ccc(Br)cc1C1=C(Br)C(=O)N(CC(C)C)/C1=C/c1ccc(Br)cc1 | -19.3 |
| COc1ccc(Br)cc1C1=C(Br)C(=O)O/C1=C\c1cccc(Cl)c1 | -13.2 |
| COc1ccc(Cl)cc1C1=C(Br)C(=O)N(CC(C)C)/C1=C\c1ccccc1Br | 0.4 |
| COc1cccc(/C=C2\C(c3cc(Cl)ccc3OC)=C(Br)C(=O)N2CC(C)C)c1 | -6.6 |
| COc1ccc(C)cc1C1=C(Br)C(=O)N(CC(C)C)/C1=C/c1ccccc1Cl | -10 |
| COc1ccc(Br)cc1C1=C(Br)C(=O)N(CC(C)C)/C1=C/c1cccc(Cl)c1 | 5 |
